I'd be grateful if you could share measured Fold Difference (Curve IC50), against palivizumab for these entries.
- measured.on: RSV (Long strain) F protein on infectious virus (respiratory syncytial virus (Long strain)) (UniProt P12568)
- Sequence (P12568 26-574): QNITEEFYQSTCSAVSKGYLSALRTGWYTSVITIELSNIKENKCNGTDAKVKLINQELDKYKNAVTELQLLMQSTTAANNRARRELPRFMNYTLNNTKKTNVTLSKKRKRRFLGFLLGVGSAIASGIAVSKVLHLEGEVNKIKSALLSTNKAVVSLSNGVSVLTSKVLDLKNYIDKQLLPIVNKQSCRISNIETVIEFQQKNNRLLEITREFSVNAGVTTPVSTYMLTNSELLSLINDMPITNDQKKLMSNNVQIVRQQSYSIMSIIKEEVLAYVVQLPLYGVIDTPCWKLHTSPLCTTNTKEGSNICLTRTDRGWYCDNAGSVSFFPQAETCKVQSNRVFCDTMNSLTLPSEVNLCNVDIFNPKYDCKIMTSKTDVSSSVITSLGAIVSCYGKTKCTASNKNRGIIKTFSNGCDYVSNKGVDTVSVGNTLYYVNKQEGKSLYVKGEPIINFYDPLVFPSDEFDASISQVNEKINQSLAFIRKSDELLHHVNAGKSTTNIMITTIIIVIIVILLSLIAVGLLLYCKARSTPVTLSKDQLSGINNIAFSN
- test.description: cell-based or functional assay
API: value field is a number in fold; no unit string.

Challenge: Provide Fold Difference (Curve IC50), against palivizumab value for the following binder: A8c7 Fab fragment (Fab, V domains shown) VH: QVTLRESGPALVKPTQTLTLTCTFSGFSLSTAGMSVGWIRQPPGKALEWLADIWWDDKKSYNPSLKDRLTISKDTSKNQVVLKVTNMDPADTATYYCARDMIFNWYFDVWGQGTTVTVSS VL: DIQMTQSPSTLSASVGDRVTITCSPSSRVGYMHWYQQKPGKAPKLLIYDTRYQSSGVPSRFSGSGSGTEFTLTISSLQPDDFATYYCFQGSGYPFTFGGGTKVEIK
Response given: 3

Challenge: Provide Fold Difference (Curve IC50), against palivizumab value for the following binder: A8c7 monoclonal antibody (antibody, V domains shown) VH: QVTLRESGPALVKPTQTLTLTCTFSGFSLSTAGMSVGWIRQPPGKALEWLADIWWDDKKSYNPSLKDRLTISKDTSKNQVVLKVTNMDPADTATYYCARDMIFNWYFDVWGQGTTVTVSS VL: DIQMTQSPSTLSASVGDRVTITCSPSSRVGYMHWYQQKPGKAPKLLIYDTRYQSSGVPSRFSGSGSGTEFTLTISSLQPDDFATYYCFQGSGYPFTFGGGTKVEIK
Response given: 13

Challenge: Provide Fold Difference (Curve IC50), against palivizumab value for the following binder: P12f4 Fab fragment (Fab, V domains shown) VH: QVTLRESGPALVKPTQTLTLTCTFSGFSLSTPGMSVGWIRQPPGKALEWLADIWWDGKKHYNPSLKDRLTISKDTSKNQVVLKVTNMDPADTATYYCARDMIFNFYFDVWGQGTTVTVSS VL: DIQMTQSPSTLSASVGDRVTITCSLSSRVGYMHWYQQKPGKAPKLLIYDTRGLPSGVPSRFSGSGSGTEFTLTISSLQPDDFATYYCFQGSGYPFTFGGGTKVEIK
Response given: 10
